test: Plasma pharmacokinetics of Z-endoxifen (HPLC assay, non-compartmental analysis); type: in vivo, human; conditions: human, plasma, po, 60 mg, DL3 60 mg oral, day 1, individual patients; read-out: AUC(0-24h)

# compound, measurement_unit, AUC(0-t)
measured = [
    ("CC/C(=C(\\c1ccc(O)cc1)c1ccc(OCCNC)cc1)c1ccccc1 [Z-endoxifen]", "ng·h/mL", 1620),
]

----------
assay: Plasma pharmacokinetics of Z-endoxifen (HPLC assay, non-compartmental analysis); assay type: in vivo, human; settings: human, plasma, po, 40 mg, DL2 40 mg oral, day 1, individual patients; read-out: Cmax
experimental_readout: Cmax (ng/mL)

# compound, quantitative_result
rows = [
    ("CC/C(=C(\\c1ccc(O)cc1)c1ccc(OCCNC)cc1)c1ccccc1 [Z-endoxifen]", 83.6),
]

----------
Assay: Plasma pharmacokinetics of Z-endoxifen (HPLC assay, non-compartmental analysis)
Type: in vivo, human
Settings: human, plasma, po, 200 mg/day, DL6 200 mg/day oral, day 28, mean; read-out: Cmax, Mean
Method: This was an open-label trial of Z-endoxifen in patients with advanced solid tumors (https://clinicaltrials.gov/ identifier: NCT01273168). […] Plasma and urine concentrations of Z- and E-endoxifen were measured using a validated, post-column fluorescence derivatization HPLC assay. Non-compartmental pharmacokinetic parameters were calculated using WinNonlin version 7.0 (Pharsight Corp., Mountainview, CA, USA). […] The amount of Z-endoxifen excreted in urine was measured over a 24-hour collection period.

# molecule, Cmax
records = [
    ("CC/C(=C(\\c1ccc(O)cc1)c1ccc(OCCNC)cc1)c1ccccc1 [Z-endoxifen]", "1640 ng/mL"),
]

----------
experiment: Plasma pharmacokinetics of Z-endoxifen (HPLC assay, non-compartmental analysis); assay type: in vivo, human; conditions: human, plasma, po, 40 mg/day, DL2 40 mg/day oral, day 28, mean; read-out: C24h, Mean

# molecule, concentration at 24 h / ng/mL
data = [
    ("CC/C(=C(\\c1ccc(O)cc1)c1ccc(OCCNC)cc1)c1ccccc1 [Z-endoxifen]", 147),
]

----------
assay: Plasma pharmacokinetics of Z-endoxifen (HPLC assay, non-compartmental analysis); format: in vivo, human; details: human, plasma, oral, range over dose levels; read-out: elimination half-life (t½)

# molecule, half-life
rows = [
    ("CC/C(=C(\\c1ccc(O)cc1)c1ccc(OCCNC)cc1)c1ccccc1 [Z-endoxifen]", "1840 to 3350 min"),
]

----------
assay: Plasma pharmacokinetics of Z-endoxifen (HPLC assay, non-compartmental analysis); type: in vivo, human; conditions: human, plasma, po, 360 mg, DL8 360 mg oral, day 1, mean (excluding patients 35 and 36); read-out: Tmax, Mean

# molecule, Tmax [h]
measured = [
    ("CC/C(=C(\\c1ccc(O)cc1)c1ccc(OCCNC)cc1)c1ccccc1 [Z-endoxifen]", 3.9),
]

----------
experiment: Plasma pharmacokinetics of Z-endoxifen (HPLC assay, non-compartmental analysis); assay type: in vivo, human; settings: human, plasma, po, 140 mg/day, DL5 140 mg/day oral, day 28, individual patients; read-out: C24h

# compound, measurement_unit, concentration at 24 h
data = [
    ("CC/C(=C(\\c1ccc(O)cc1)c1ccc(OCCNC)cc1)c1ccccc1 [Z-endoxifen]", "ng/mL", 598),
]

----------
assay: Plasma pharmacokinetics of Z-endoxifen (HPLC assay, non-compartmental analysis); format: in vivo, human; settings: human, plasma, po, 100 mg/day, DL4 100 mg/day oral, day 28, mean; read-out: Cmax, Mean

# compound, measurement_unit, Cmax
measured = [
    ("CC/C(=C(\\c1ccc(O)cc1)c1ccc(OCCNC)cc1)c1ccccc1 [Z-endoxifen]", "ng/mL", 1010),
]

----------
test: Plasma pharmacokinetics of Z-endoxifen (HPLC assay, non-compartmental analysis); type: in vivo, human; conditions: human, plasma, po, 140 mg, DL5 140 mg oral, day 1, individual patients; read-out: Tmax

# molecule, measurement_unit, Tmax
records = [
    ("CC/C(=C(\\c1ccc(O)cc1)c1ccc(OCCNC)cc1)c1ccccc1 [Z-endoxifen]", "h", 3),
]

----------
assay: Plasma pharmacokinetics of Z-endoxifen (HPLC assay, non-compartmental analysis); format: in vivo, human; conditions: human, plasma, po, 280 mg, DL7 280 mg oral, day 1, mean; read-out: C24h, Mean

# compound, concentration at 24 h [ng/mL]
rows = [
    ("CC/C(=C(\\c1ccc(O)cc1)c1ccc(OCCNC)cc1)c1ccccc1 [Z-endoxifen]", 468),
]

----------
assay: Plasma pharmacokinetics of Z-endoxifen (HPLC assay, non-compartmental analysis); format: in vivo, human; conditions: human, plasma, po, 200 mg, DL6 200 mg oral, day 1, mean; read-out: Cmax, Mean

# compound, Cmax [ng/mL]
data = [
    ("CC/C(=C(\\c1ccc(O)cc1)c1ccc(OCCNC)cc1)c1ccccc1 [Z-endoxifen]", 517),
]

----------
experiment: Plasma pharmacokinetics of Z-endoxifen (HPLC assay, non-compartmental analysis); type: in vivo, human; conditions: human, plasma, po, 100 mg, DL4 100 mg oral, day 1, individual patients; read-out: Cmax
experimental_readout: Cmax (ng/mL)

# molecule, quantitative_result
data = [
    ("CC/C(=C(\\c1ccc(O)cc1)c1ccc(OCCNC)cc1)c1ccccc1 [Z-endoxifen]", 264),
]

----------
test: Plasma pharmacokinetics of Z-endoxifen (HPLC assay, non-compartmental analysis); type: in vivo, human; conditions: human, plasma, po, 60 mg/day, DL3 60 mg/day oral, day 28, mean; read-out: Cmax, Mean

# compound, measurement_unit, Cmax
records = [
    ("CC/C(=C(\\c1ccc(O)cc1)c1ccc(OCCNC)cc1)c1ccccc1 [Z-endoxifen]", "ng/mL", 417),
]

----------
test: Plasma pharmacokinetics of Z-endoxifen (HPLC assay, non-compartmental analysis); type: in vivo, human; conditions: human, plasma, po, 100 mg, DL4 100 mg oral, day 1, individual patients; read-out: C24h

# molecule, concentration at 24 h
rows = [
    ("CC/C(=C(\\c1ccc(O)cc1)c1ccc(OCCNC)cc1)c1ccccc1 [Z-endoxifen]", "133 ng/mL"),
]
